procedure_details: Human HepG2 cell viability assay in 384 well format
Format: toxicity, cell-based
Parameters: dose 125 nL, time 70.5 hour; concentration not given beside the values
recorded_conditions: HepG2 cells, read-out: Inhibition
endpoint_name: cytotoxicity at 70.5 h (%)
Write the number in % without appending the unit.

Please review the following examples before continuing.
In: Can you share its cytotoxicity at 70.5 h? I mean this molecule: Cc1cc(F)ccc1-c1cc(NCCO)nc2[nH]ccc12
Out: 0.963

In: Value lookup for cytotoxicity at 70.5 h; key = COCC(=O)N1C[C@@H](C)[C@](O)(C(C)C)C1
Out: -3.63

***
In: Look up cytotoxicity at 70.5 h for this molecule: CC(=O)c1cc(CC(=O)NCc2ccsc2)cs1
Out: -1.03

In: Quick one: cytotoxicity at 70.5 h of Cc1cc(C[C@@H]2COC[C@@H]2NC(=O)CN2CCCC2)on1 ?
Out: -0.566

In: Given the molecule CCCN(C)c1ccc(C(=O)Nc2c(C)nn(C(C)C)c2C)cc1 , what is its reported cytotoxicity at 70.5 h?
Out: -3.3

In: What does the record list as cytotoxicity at 70.5 h for CC1CN(C)c2ccccc2CN1C(=O)c1ccncc1F (configuration not stated) ?
Out: 35

In: Give its cytotoxicity at 70.5 h value. Item: Cc1[nH]nc2ncc(C(=O)N3CCN(CC(C)O)CC3)cc12 (configuration not stated)
Out: -5.99

In: Form field: reported cytotoxicity at 70.5 h of CN1CCN(c2ccc(F)cc2NC(=O)NCc2ccon2)CC1
Out: 0.112

In: Give its cytotoxicity at 70.5 h value. Item: CC(=O)N1CCC2(CC1)COCCN2Cc1ccc(F)cc1
Out: -0.157

In: Fill in the blank: the reported cytotoxicity at 70.5 h of CCC(c1nc(C(C)C)nn1-c1ccncc1C)n1cccn1 (configuration not stated) is ____.
Out: -9.34

In: Data request, read-out cytotoxicity at 70.5 h, for O=C(c1cccs1)N1CCc2nnc(COc3cncnc3)n2CC1
Out: 14.1

In: Entry O=C(CCC(=O)N1CCCC1c1cccs1)N1CCc2sccc2C1 (configuration not stated) : reported cytotoxicity at 70.5 h = ?
Out: 2.92
